- System: LNCaP
- assayText: Induction of cholesterol metabolism deregulation in human LNCAP cells assessed as reduction in NBD-cholesterol uptake at 30 uM after 48 hrs by DAPI/Alexa fluor 633 phalloidin staining based high-content imaging analysis
- Assay type: functional, cell-based
Active and inactive are the calls of the source. The calls are words filed in the database; no cut-off is given here.
quantityName: Activity

C=C1C[C@]23C[C@@]1(O)CC[C@H]2[C@@]12C=C[C@H](O)[C@](C)(C(=O)O1)[C@H]2[C@@H]3C(=O)O: Active
C=C1C[C@]23C[C@@]1(O)CC[C@H]2[C@@]12C=C[C@H](O)[C@](C)(C(=O)O1)[C@H]2[C@@H]3C(=O)NCCc1ccc(F)cc1: Active
C=C1C[C@]23C[C@@]1(O)CC[C@H]2[C@@]12C=C[C@H](O)[C@](C)(C(=O)O1)[C@H]2[C@@H]3C(=O)NCc1ccc(Br)cc1: Active
